Numbers sourced from ChEMBL document CHEMBL5608203.

Tested on: A549
Test: Induction of apoptosis in human A549 cells assessed as caspase-3-negative cells at IC50 incubated for 24 hrs by flow cytometry (reference value: 98.49 %)
Format: functional
Below, each of the molecules is paired with its reported Activity value.
Enter your answer as a number in %; do not include the unit.

[[record]]
structure_as_smiles = "N#Cc1ccc(-c2cn3c(CC(=O)N/N=C/c4ccccc4)csc3n2)cc1"
experimental_endpoint = "Activity"
value_units = "%"
number = 95.65

[[record]]
structure_as_smiles = "Cc1ccc(/C=N/NC(=O)Cc2csc3nc(-c4ccc(C#N)cc4)cn23)cc1"
experimental_endpoint = "Activity"
value_units = "%"
number = 97.98


In the following, a different molecule is considered.
Please look up its Activity: "COc1ccc(/C=N/NC(=O)Cc2csc3nc(-c4ccc(C#N)cc4)cn23)cc1"
97.08

* * *

Below, each of the compounds is paired with its reported Activity value.
Tested on: A549
Assay: Induction of apoptosis in human A549 cells assessed as necrotic cells at IC50 incubated for 24 hrs by Annexin V-FITC/PI staining based flow cytometry (reference value: 2.05 %)
Assay type: functional
Enter your answer as a number in %; do not include the unit.

[[record]]
compound = "CCn1c(-c2nonc2N)nc2c(C#CC(C)(C)O)ncc(OC[C@H]3CCCNC3)c21 [GSK-690693]"
number = 1.86


// map "N#Cc1ccc(/C=N/NC(=O)Cc2csc3nc(-c4ccc(C#N)cc4)cn23)cc1" to recorded Activity (system: A549)
0.11

// map "CC(C)(C)c1ccc(/C=N/NC(=O)Cc2csc3nc(-c4ccc(C#N)cc4)cn23)cc1" to recorded Activity (system: A549)
0.32

* * *

System: A549
Assay: Induction of apoptosis in human A549 cells assessed as caspase-3-negative cells at IC50 incubated for 24 hrs by flow cytometry (reference value: 98.49 %)
Assay type: functional
experimental_endpoint: Activity (%)
Enter your answer as a number in %; do not include the unit.

[[record]]
structure_as_smiles = "N#Cc1ccc(/C=N/NC(=O)Cc2csc3nc(-c4ccc(C#N)cc4)cn23)cc1"
experimental_endpoint = "Activity"
value_units = "%"
number = 63.66

[[record]]
structure_as_smiles = "CC(C)(C)c1ccc(/C=N/NC(=O)Cc2csc3nc(-c4ccc(C#N)cc4)cn23)cc1"
experimental_endpoint = "Activity"
value_units = "%"
number = 95.41

[[record]]
structure_as_smiles = "CCn1c(-c2nonc2N)nc2c(C#CC(C)(C)O)ncc(OC[C@H]3CCCNC3)c21"
experimental_endpoint = "Activity"
value_units = "%"
number = 73.93

[[record]]
structure_as_smiles = "N#Cc1ccc(-c2cn3c(CC(=O)N/N=C/c4ccc(O)cc4)csc3n2)cc1"
experimental_endpoint = "Activity"
value_units = "%"
number = 97.42


In the following, a different molecule is considered.
// map "C#Cc1cccc(Nc2ncnc3cc(OCCOC)c(OCCOC)cc23)c1" to recorded Activity (system: A549)
93.1

* * *

Below, each of the compounds is paired with its reported Activity value.
System: A549
Assay: Induction of cell cycle arrest at G0/G1 phase in human A549 cells at IC50 incubated for 24 hrs by PI staining based flow cytometry (reference value: 9.17 %)
Type: functional
Write the numeric value and append its unit.

Observe how each entry below is paired with its result.
[[record]]
compound = "N#Cc1ccc(/C=N/NC(=O)Cc2csc3nc(-c4ccc(C#N)cc4)cn23)cc1"
experimental_endpoint = "Activity"
result = "13.81%"

[[record]]
compound = "CCn1c(-c2nonc2N)nc2c(C#CC(C)(C)O)ncc(OC[C@H]3CCCNC3)c21 [GSK-690693]"
experimental_endpoint = "Activity"
result = "30.35%"

[[record]]
compound = "CC(C)(C)c1ccc(/C=N/NC(=O)Cc2csc3nc(-c4ccc(C#N)cc4)cn23)cc1"
experimental_endpoint = "Activity"
result = "3.91%"

[[record]]
compound = "Cc1ccc(/C=N/NC(=O)Cc2csc3nc(-c4ccc(C#N)cc4)cn23)cc1"
experimental_endpoint = "Activity"
result = "6.54%"

[[record]]
compound = "N#Cc1ccc(-c2cn3c(CC(=O)N/N=C/c4ccc(O)cc4)csc3n2)cc1"
experimental_endpoint = "Activity"
result = "4.95%"


Please look up its Activity: "COc1ccc(/C=N/NC(=O)Cc2csc3nc(-c4ccc(C#N)cc4)cn23)cc1"
5.65%

Please look up its Activity: C#Cc1cccc(Nc2ncnc3cc(OCCOC)c(OCCOC)cc23)c1 [ERLOTINIB]
12.58%

Please look up its Activity: "N#Cc1ccc(-c2cn3c(CC(=O)N/N=C/c4ccccc4)csc3n2)cc1"
7.37%

* * *

Experiment: Cytotoxicity against human CCD 19Lu cells incubated for 24 hrs by MTT assay
Type: toxicity, cell-based
Response field label takes yes when IC50 at 24 h is strictly below 50 µM and no in all other cases.

Consider the following illustrative entries.
[[record]]
structure_as_smiles = "Cc1ccc(/C=N/NC(=O)Cc2csc3nc(-c4ccc(C#N)cc4)cn23)cc1"
class_name = "no"

[[record]]
structure_as_smiles = "N#Cc1ccc(-c2cn3c(CC(=O)N/N=C/c4ccc(-n5cncn5)cc4)csc3n2)cc1"
class_name = "no"

[[record]]
structure_as_smiles = "N#Cc1ccc(-c2cn3c(CC(=O)N/N=C/c4ccc(F)cc4)csc3n2)cc1"
class_name = "yes"

[[record]]
structure_as_smiles = "N#Cc1ccc(-c2cn3c(CC(=O)N/N=C/c4ccc(O)cc4)csc3n2)cc1"
class_name = "no"

[[record]]
structure_as_smiles = "N#Cc1ccc(-c2cn3c(CC(=O)N/N=C/c4ccc(N5CCCCC5)cc4)csc3n2)cc1"
class_name = "no"


Is IC50 at 24 h of "N#Cc1ccc(-c2cn3c(CC(=O)N/N=C/c4ccc(-n5ccnc5)cc4)csc3n2)cc1" strictly below 50 µM?
yes

* * *

System: A549
Assay: Induction of apoptosis in human A549 cells assessed as necrotic cells at IC50 incubated for 24 hrs by Annexin V-FITC/PI staining based flow cytometry (reference value: 2.05 %)
Format: functional
experimental_endpoint: Activity (%)
Enter your answer as a number in %; do not include the unit.

Observe how each entry below is paired with its result.
[[record]]
compound = "N#Cc1ccc(-c2cn3c(CC(=O)N/N=C/c4ccc(O)cc4)csc3n2)cc1"
number = 3.89

[[record]]
compound = "COc1ccc(/C=N/NC(=O)Cc2csc3nc(-c4ccc(C#N)cc4)cn23)cc1"
number = 0.24

[[record]]
compound = "C#Cc1cccc(Nc2ncnc3cc(OCCOC)c(OCCOC)cc23)c1 [ERLOTINIB]"
number = 0.09

[[record]]
compound = "N#Cc1ccc(-c2cn3c(CC(=O)N/N=C/c4ccccc4)csc3n2)cc1"
number = 0.02


In the following, a different compound is considered.
Please look up its Activity: "Cc1ccc(/C=N/NC(=O)Cc2csc3nc(-c4ccc(C#N)cc4)cn23)cc1"
0.17

* * *

Assay: Cytotoxicity against human CCD 19Lu cells incubated for 24 hrs by MTT assay
Type: toxicity, cell-based
experimental_endpoint: IC50 at 24 h (µM)
Enter your answer as a number in µM; do not include the unit.

[[record]]
structure_as_smiles = "COc1ccc(/C=N/NC(=O)Cc2csc3nc(-c4ccc(C#N)cc4)cn23)cc1"
number = 51.7


Please look up its IC50 at 24 h: "N#Cc1ccc(-c2cn3c(CC(=O)N/N=C/c4ccc(N5CCOCC5)cc4)csc3n2)cc1"
4.9

Please look up its IC50 at 24 h: "CS(=O)(=O)c1ccc(/C=N/NC(=O)Cc2csc3nc(-c4ccc(C#N)cc4)cn23)cc1"
160

Please look up its IC50 at 24 h: "CC(C)(C)c1ccc(/C=N/NC(=O)Cc2csc3nc(-c4ccc(C#N)cc4)cn23)cc1"
66.5

* * *

Below, each of the compounds is paired with its reported IC50 at 24 h value.
Test: Cytotoxicity against human CCD 19Lu cells incubated for 24 hrs by MTT assay
Assay type: toxicity, cell-based

[[record]]
structure_as_smiles = "N#Cc1ccc(-c2cn3c(CC(=O)N/N=C/c4ccccc4)csc3n2)cc1"
experimental_endpoint = "IC50 at 24 h"
result = "> 500 µM"

[[record]]
structure_as_smiles = "CC(C)c1ccc(/C=N/NC(=O)Cc2csc3nc(-c4ccc(C#N)cc4)cn23)cc1"
experimental_endpoint = "IC50 at 24 h"
result = "< 3.9 µM"

[[record]]
structure_as_smiles = "CSc1ccc(/C=N/NC(=O)Cc2csc3nc(-c4ccc(C#N)cc4)cn23)cc1"
experimental_endpoint = "IC50 at 24 h"
result = "> 500 µM"


Please look up its IC50 at 24 h: "N#Cc1ccc(/C=N/NC(=O)Cc2csc3nc(-c4ccc(C#N)cc4)cn23)cc1"
> 500 µM
